Assay: chemical genetic growth profiling, strain panel (AID 1159580);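 further: tested at 20 µM; growth read once vehicle control cultures reached saturation at 30 °C; 1 = growth at the plate median or of vehicle wells; lower values mean less growth of the strain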
Conditions: S. cerevisiae deletion strains, growth OD, locus YHR013C, strain ard1
Hit rate of the full screen: of about 5,500 compounds, about 2,000 (36%) were called active. Roughly 18% stayed inconclusive and do not appear here. No stated cut-off is given here; in the data, active means normalized growth mostly below about 0.91 (no sharp cut-off); inconclusive means no clear call, values can overlap the other calls; inactive means mostly above about 0.92. This is one part of the list.
Classes to choose from: y = active, n = inactive

// known answers, use as guide
- MOLECULE: "CC(C)CCCC(C)[C@H]1CCC2C3CC[C@H]4CC(=O)CC[C@]4(C)C3CC[C@@]21C (some centres not stated)"
  CLASS ASSIGNMENT: "n"
- MOLECULE: "CCS(=O)(=O)CCn1c([N+](=O)[O-])cnc1C"
  CLASS ASSIGNMENT: "n"
- MOLECULE: "Fc1ccc(C(c2ccc(F)cc2)N2CCN(C/C=C/c3ccccc3)CC2)cc1"
  CLASS ASSIGNMENT: "y"
- MOLECULE: "Cc1c(N(C)CS(=O)(=O)O)c(=O)n(-c2ccccc2)n1C"
  CLASS ASSIGNMENT: "n"
- MOLECULE: "COc1cc2ccc(=O)oc2c(OC)c1OC"
  CLASS ASSIGNMENT: "n"

*Q* Call for entry COc1c2c(cc3occ(-c4ccc5c(c4)OCO5)c(=O)c13)OC(C)(C)C=C2 :
*A* n

====

Experiment: chemical genetic growth profiling, strain panel (AID 1159580)
Settings: S. cerevisiae deletion strains, growth OD, locus YJL092W, strain hpr5, hits give low values
In all, about 5,500 compounds went through this assay and about 2,000 (36%) were called active. Not shown: some 18% with an inconclusive outcome. This is one part of the list.
Kindly state normalized growth for each of the entries shown.
Numbers only.

Worked examples follow.
- COMPOUND: "CC(=O)Oc1ccc2c(c1)CCC1C2CC[C@@]2(C)C1CC[C@@H]2OC(C)=O (some centres undefined)"
  READOUT VALUE: 0.975
- COMPOUND: "Cc1c(N(C)CS(=O)(=O)O)c(=O)n(-c2ccccc2)n1C"
  READOUT VALUE: 1.01
- COMPOUND: "c1coc(CNc2ncnc3nc[nH]c23)c1"
  READOUT VALUE: 0.995
- COMPOUND: "O=c1[nH]cnc2nc[nH]c12"
  READOUT VALUE: 1.02
- COMPOUND: "C[N+]1(C)C2CC[C@H]1CC(OC(=O)C(O)c1ccccc1)C2 (some centres undefined)"
  READOUT VALUE: 0.995
- COMPOUND: "CC(=O)OCC(=O)[C@@]1(O)CCC2C3CCC4=CC(=O)CC[C@]4(C)[C@@]3(F)[C@@H](O)C[C@@]21C (some centres undefined)"
  READOUT VALUE: 1.02

Batch lookup, normalized growth per entry.
1. NCCS
2. CC1(C)C[C@@H]2C(=O)CC[C@H]3O[C@]3(C)CC[C@H]21
3. Cc1ncc([N+](=O)[O-])n1CCO

*A*
1. 0.997
2. 1.02
3. 0.985

Required: normalized growth, one value per compound below.
1. OCCN1CCN(CCCN2c3ccccc3Sc3ccc(Cl)cc32)CC1
2. CCOC(=O)C1=C(C)NC(C)=C(C(=O)OC)C1c1cccc([N+](=O)[O-])c1 (centres undefined)
3. O=c1c(-c2ccc3c(c2)OCO3)coc2cc(O)ccc12
4. O=c1cc(-c2ccc(O)cc2)oc2cc(O[C@@H]3O[C@H](CO)[C@@H](O)[C@H](O)[C@H]3O[C@@H]3OC[C@](O)(CO)[C@H]3O)cc(O)c12
5. CC(C)(O)CC[C@@H](O)[C@](C)(O)C1CC[C@@]2(O)C3=CC(=O)C4C[C@@H](O)[C@@H](O)C[C@]4(C)C3CC[C@]12C (some centres undefined)

*A*
1. 1
2. 1
3. 1.01
4. 1
5. 0.998

====

Assay: chemical genetic growth profiling, strain panel (AID 1159580);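 further: tested at 20 µM; growth read once vehicle control cultures reached saturation at 30 °C; 1 = growth at the plate median or of vehicle wells; lower values mean less growth of the strain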
Conditions: S. cerevisiae deletion strains, growth OD, locus YER016W, strain bim1, hits give low values
Hit rate of the full screen: of about 5,500 compounds, about 2,000 (36%) were called active. Not shown: some 18% with an inconclusive outcome. This is one part of the list.
PROPERTY NAME: normalized growth
Give bare numbers.

Consider the reported normalized growth for these molecules:
- CPD SMILES: "COc1c2occc2cc2ccc(=O)oc12"
  normalized growth: 1
- CPD SMILES: "O=c1[nH]c2ccccc2n1CCCN1CCC(n2c(=O)[nH]c3cc(Cl)ccc32)CC1"
  normalized growth: 1
- CPD SMILES: "O=c1[nH]c2ccccc2n1C1CCN(CCCC(c2ccc(F)cc2)c2ccc(F)cc2)CC1"
  normalized growth: 0.961
- CPD SMILES: "COC(=O)C1=CO[C@@H](O[C@@H]2O[C@H](CO)[C@@H](O)[C@H](O)[C@H]2O)[C@@H]2[C@@H](C)[C@@H](O)C[C@H]12"
  normalized growth: 0.999

Attention now shifts to the item below.
*Q* Please look up its normalized growth: CCCc1nc(C(C)(C)O)c(C(=O)OCc2oc(=O)oc2C)n1Cc1ccc(-c2ccccc2-c2nn[nH]n2)cc1
*A* 0.967

====

Field: normalized growth. Provide a value for each of the molecules that follow.
Assay: chemical genetic growth profiling, strain panel (AID 1159580);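 further: tested at 20 µM; growth read once vehicle control cultures reached saturation at 30 °C; 1 = growth at the plate median or of vehicle wells; lower values mean less growth of the strain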
Conditions: S. cerevisiae deletion strains, growth OD, locus YHR013C, strain ard1, hits give low values
In all, about 5,500 compounds went through this assay and about 2,000 (36%) were called active. Another 18% or so got no clear call; they are omitted. Some of the results follow.

In the examples that follow, each entry is paired with its recorded normalized growth.
- MOLECULE: "O=C1c2ccc(O)c(O)c2C(=O)c2c(O)ccc(O)c21"
  READOUT VALUE: "0.953 (inactive)"
- MOLECULE: "Cc1nccc2c1[nH]c1ccccc12"
  READOUT VALUE: "0.951 (inactive)"
- MOLECULE: "C[C@]12CCC3C(CC[C@H]4C[C@@H](O)CC[C@]34C)C1CCC2=O (stereo partly specified)"
  READOUT VALUE: "0.899 (inactive)"

For the 8 molecules below, give their normalized growth values.
1. CC(C)=CCc1c(O)cc2occ(-c3ccc4c(c3)OCO4)c(=O)c2c1O
2. c1coc(CNc2ncnc3nc[nH]c23)c1
3. CC1(C)S[C@@H]2[C@H](NC(=O)COc3ccccc3)C(=O)N2[C@H]1C(=O)O
4. O=c1cc(-c2ccc(O)cc2)oc2cc(O[C@@H]3O[C@H](CO)[C@@H](O)[C@H](O)[C@H]3O[C@@H]3OC[C@](O)(CO)[C@H]3O)cc(O)c12
5. O=C1c2ccccc2C(=O)c2c1ccc(O)c2O
6. O=C(O)c1cccc(O)c1O
7. CC1=C2CCC3C(CC[C@]4(C)C(=O)CCC34)[C@@]2(C)CCC1=O (stereo partly specified)
8. CCOC(=O)C1=C(C)NC(C)=C(C(=O)OC)C1c1cccc([N+](=O)[O-])c1 (stereo unspecified)

*A*
1. 1.17 [resistant] (active)
2. 0.983 (inactive)
3. 1 (inactive)
4. 0.988 (inactive)
5. 0.427 (active)
6. 1.02 (inactive)
7. 0.943 (inactive)
8. 1.03 (inactive)

====

Task for the reader: assign each of the following compounds its reported normalized growth.
Assay: chemical genetic growth profiling, strain panel (AID 1159580);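 further: tested at 20 µM; growth read once vehicle control cultures reached saturation at 30 °C; 1 = growth at the plate median or of vehicle wells; lower values mean less growth of the strain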
Details: S. cerevisiae deletion strains, growth OD, locus YHR013C, strain ard1, hits give low values
Out of some 5,500 compounds screened, about 2,000 (36%) were called active. Roughly 18% stayed inconclusive and do not appear here. Some of the results follow.
One number for each entry.

Solved cases below.
- COMPOUND: "CC1=C(C(=O)O)N2C(=O)[C@@H](NC(=O)[C@H](N)C3=CCC=CC3)C2SC1 (stereo not given in full)"
  READOUT VALUE: 1.05
- COMPOUND: "O=C(CCCN1CC=C(n2c(=O)[nH]c3ccccc32)CC1)c1ccc(F)cc1"
  READOUT VALUE: 1.01
- COMPOUND: "CC(C)=CCOc1c2occc2cc2ccc(=O)oc12"
  READOUT VALUE: 0.87
- COMPOUND: "CC(=O)N[C@@H](CC(=O)O)C(=O)O"
  READOUT VALUE: 1.01

*Q* Tell me the measured normalized growth of CCCCC(=O)O[C@H]1CCC2C3CCc4cc(O)ccc4C3CC[C@@]21C (stereo not given in full) , please.
*A* 1.03
